Data credit: patent US20230151068A1

target: biotinylated His-Avi-TEAD (194-411) (UniProt P28347); experiment: SSM screen, enrichment after two rounds of sorting
readout-type: enrichment score

Guide cases for enrichment score, answers given:
GSPDEYIERSKECCKKGDIQCCLRYFEESGDPNVMLICLFCP (designed binder) [A08S variant of SEQ ID NO: 1] : -2.79
GSPDEYIERAKECCKEGDIQCCLRYFEESGDPNVMLICLFCP (designed binder) [K14E variant of SEQ ID NO: 1] : 1
GSPDEYIERAKECCKKGLIQCCLRYFEESGDPNVMLICLFCP (designed binder) [D16L variant of SEQ ID NO: 1] : -8.99
GSIDEYIERAKECCKKGDIQCCLRYFEESGDPNVMLICLFCP (designed binder) [P01I variant of SEQ ID NO: 1] : -2.27

a: GSPDEYIERAKECCKKGMIQCCLRYFEESGDPNVMLICLFCP (designed binder) [D16M variant of SEQ ID NO: 1]
b: GSPDEYVERAKECCKKGDIQCCLRYFEESGDPNVMLICLFCP (designed binder) [I05V variant of SEQ ID NO: 1]
Prompt line: Returns the identifier with the smallest measured enrichment score among a and b . // return label of chosen record
Response line: a
(a: -4.12, b: -0.27)
